Tested on: β-adreno-receptor
Experiment Summary: Inhibition of histamine-induced bronchoconstriction (bronchial resistance, Konzett-Rossler method) in anesthetized dogs; β-adreno-receptor stimulating activity
Assay type: in vivo, dog (male hybrid adult dogs)
Condition Info: dose 0.03 ug/Kg, femoral vein, 1 minute before histamine 10 mg/kg
Counter-ions that a name gives are not always drawn.
Measurement Kind: Bronchial Resistance (%)
Numbers only, in %.

Return reported Bronchial Resistance (%) values for all items listed beneath this line.
1. CC(C)(C)NCC(O)c1ccc(O)c(CO)c1 (stereo not shown)
2. CC(C)NCC(O)c1ccc(O)c2ncccc12 (stereo not shown)
3. CC(C)NCC(O)c1cc(O)cc(O)c1 (stereo not shown) [Metaproterenol Sulfate (Arotec)]
4. CC(C)NCC(O)c1ccc(O)c(O)c1 (stereo not shown)

0
0
0
16.6
